- Tested on: SF-268 CNS
- protocolDetails: NCI tumour cell line growth inhibition, 48 h
propertyLabel: GI50

According to the records, this compound O=c1cc(-c2cccc3ccccc23)[nH]c2ncccc12 displays GI50 of 10.1 µM

According to the records, this compound C=C(C)[C@@H]1CC[C@]2(C(=O)NC3CCCCC3)CC[C@]3(C)[C@H](CC[C@@H]4[C@@]5(C)CCCNC(C)(C)[C@@H]5CC[C@]43C)[C@@H]12 displays GI50 of 5.29 µM

According to the records, this compound COc1cc(-c2cc(-c3cc4c([nH]c5ccccc54)c(-c4cc(OC)c(OC)c(OC)c4)n3)cc(-c3ccccc3)n2)cc(OC)c1OC displays GI50 of 4.96 µM

According to the records, this compound O=C1/C(=C/c2cccc(Cl)c2Cl)N=C(c2ccccc2)N1C1CC1 displays GI50 of 10.3 µM

According to the records, this compound CS(=O)(=O)CCNCc1nc(-c2ccc3ncnc(Nc4ccc(OCc5cccc(C(F)(F)F)c5)cc4)c3c2)cs1 displays GI50 of 12.8 µM

According to the records, this compound O=C1Nc2ccccc2/C1=N\[O-].O=C1Nc2ccccc2/C1=N\[O-].[Cu+2] displays GI50 of > 100 µM

---

- System: OVCAR-5 ovarian
- protocolDetails: NCI tumour cell line growth inhibition, 48 h; in the data active = GI50 below about 0.43 µM; inactive = the rest
Outcome (select one): y (active), n (inactive)

[in] Answer briefly: the call reported for O=C(N[C@@H](c1ccc(Cl)c(Cl)c1)C1CNC1)c1ccc2cnccc2c1 in this assay.
[out] y

[in] Answer briefly: the call reported for Nc1nc(/C=C\c2ccc([N+](=O)[O-])s2)nc(N2CCCC2)n1 in this assay.
[out] n

[in] Answer briefly: the call reported for COc1cc(F)ccc1-c1ncnc(Nc2cccc(CS(C)(=N)=O)c2)n1 (centres undefined) in this assay.
[out] n

[in] Answer briefly: the call reported for COc1ccc2[nH]cc(C3(c4c[nH]c5ccc(OC)cc45)C(=O)Nc4ccc(F)cc43)c2c1 in this assay.
[out] n

---

Please go through the items and note down their TGI.
- Tested on: K-562 leukemia
- protocolDetails: NCI tumour cell line growth inhibition, 48 h

According to the records, this compound CCCN1C(=O)N(CCC)C2C1NC(=S)N2/N=C/C=C/c1ccccc1OC (stereo not drawn) displays TGI of > 100 µM

According to the records, this compound CS(=O)(=O)CCNCc1nc(-c2ccc3ncnc(Nc4ccc(OCc5cccc(C(F)(F)F)c5)cc4)c3c2)cs1 displays TGI of > 25 µM

According to the records, this compound CCOc1ccc(NC(=O)C(=O)CC(=O)c2c(C)n([O-])c3ccccc3[n+]2=O)cc1 displays TGI of > 100 µM

---

Please go through the items and note down their TGI.
- Test system: MCF7 breast
- protocolDetails: NCI tumour cell line growth inhibition, 48 h

According to the records, this molecule CC(C)=CC[C@]12CCN[C@H]1N(S(=O)(=O)c1ccccc1)c1ccccc12 displays TGI of 39.8 µM

According to the records, this molecule COC(=O)C1=C(O)C(C(=O)OC)[C@]2(O)[C@H](C(=O)OC)[C@H]1C[C@@H](c1ccc(C(F)(F)F)cc1)[C@H]2C(=O)OC (stereo partly drawn) displays TGI of > 100 µM

According to the records, this molecule O=C(O)Cc1cc(Cl)ccc1O displays TGI of > 100 µM
